# System: Salmonella enteritidis
# assay_overview: Antimicrobial activity against Salmonella enteritidis ATCC 13076 by serial dilution technique
# Assay type: functional, Salmonella enterica subsp. enterica serovar Enteritidis
# experimental_setup: Salmonella enterica
measured_quantity: MIC (µM)
Report the figure in µM without appending any unit label.

Past entries and their recorded results:
• CN[C@@H]1[C@H](O[C@H]2[C@H](O[C@H]3[C@H](O)[C@@H](O)[C@H](N=C(N)N)[C@@H](O)[C@@H]3N=C(N)N)O[C@@H](C)[C@]2(O)C=O)O[C@@H](CO)[C@H](O)[C@H]1O = 1.6
• C/C1=C\CC/C(CO)=C/[C@H]2OC(=O)[C@@H](C)[C@@H]2[C@@H](O)C1 = 1.1

Switching to the query record.
Problem: Suppose we examine the compound C=C[C@]1(C)C[C@H](OC(=O)C(=C)CCO)[C@@H]2[C@H](OC(=O)[C@H]2C)[C@H]1C(=C)CO ; what MIC value has been reported?
Solution: 0.2
